# Tested On: human mAChR M4 (Homo sapiens, UniProt P08173)
# Construct: expressed in transfected cells
# Sequence (P08173 whole entry): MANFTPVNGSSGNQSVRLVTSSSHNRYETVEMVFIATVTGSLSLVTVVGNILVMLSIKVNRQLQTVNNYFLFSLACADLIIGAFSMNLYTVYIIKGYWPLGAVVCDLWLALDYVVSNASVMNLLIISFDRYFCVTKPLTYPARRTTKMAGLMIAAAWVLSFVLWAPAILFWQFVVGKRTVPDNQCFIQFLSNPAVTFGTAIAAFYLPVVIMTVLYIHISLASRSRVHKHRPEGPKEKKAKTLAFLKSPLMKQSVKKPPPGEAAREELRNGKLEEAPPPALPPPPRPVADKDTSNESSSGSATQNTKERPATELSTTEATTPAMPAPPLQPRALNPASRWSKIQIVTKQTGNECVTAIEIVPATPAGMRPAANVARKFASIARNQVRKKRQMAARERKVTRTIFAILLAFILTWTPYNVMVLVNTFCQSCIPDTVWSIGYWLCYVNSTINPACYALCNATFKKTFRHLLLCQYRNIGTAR
# Experiment Summary: mAChR M4 cell-based functional assay (calcium mobilization, CHO-K1 hM4-Gqi5 cells)
# Cond: positive allosteric modulator activity, increase in the EC20 acetylcholine response, CHO-K1 hM4-Gqi5 cells; read-out: Human M4 EC50
pEC50: −log10 of the molar value.
What pEC50 was measured for each of the following?

Req: Any idea what pEC50 came out for Cc1cc(C(=O)NCc2ccc3c(c2)CCS3(=O)=O)cnc1N1CCc2ncccc2C1 on human mAChR M4 (Homo sapiens, UniProt P08173)?
Resp: ≤ 5.00

Req: Now consider CNC(=O)c1cnc(N2CCc3ncccc3C2)c(C)c1 and answer again.
Resp: ≤ 5.00

Req: Queued: Cc1nn(C)cc1-c1cnc2c(c1)CN(c1nc(CO)nc(C)c1C)CC2
Resp: 6.46

* * *

Exercise: state measured EC50 for each of the compounds provided.
# Tested On: human mAChR M4 (Homo sapiens)
# Construct: expressed in transfected cells
# Experiment Summary: mAChR M4 cell-based functional assay (calcium mobilization, CHO-K1 hM4-Gqi5 cells)
# Cond: positive allosteric modulator activity, increase in the EC20 acetylcholine response, CHO-K1 hM4-Gqi5 cells; read-out: Human M4 EC50
Reply with just the number (in nM).

Req: Form field: EC50 recorded for Cc1c(C#N)nnc(N2CCc3ncc(N4CCOC(c5cccnc5)C4)cc3C2)c1C (stereo not drawn) [Example 388] with human mAChR M4 (Homo sapiens) (enter value)
Resp: 1250

Req: Likewise for Cc1c(C#N)nnc(N2CCc3ncc(Nc4ccc(Cl)cc4F)cc3C2)c1C [compound 46] ?
Resp: 970

Req: Then Cc1nc(Cl)c(C)c(N2CCc3ncc(Nc4cccc(F)c4F)cc3C2)n1 [compound 86] ?
Resp: 654

* * *

Give pEC50 for every item shown.
# Tested On: human mAChR M4 (Homo sapiens, UniProt P08173)
# Construct: expressed in transfected cells
# Experiment Summary: mAChR M4 cell-based functional assay (calcium mobilization, CHO-K1 hM4-Gqi5 cells)
# Cond: positive allosteric modulator activity, increase in the EC20 acetylcholine response, CHO-K1 hM4-Gqi5 cells; read-out: Human M4 EC50
When answering, recall that pEC50 equals minus log10 of the concentration in mol/L, and write that number alone.

Req: What value of measured pEC50 is listed for Cc1cc(C#N)cnc1N1CCc2ncc(N(C)c3ccnn3C)cc2C1 ?
Resp: 7.37

Req: Similarly, Cc1cc(C(=O)NCc2ccc3c(c2)n(C)c(=O)n3C)cnc1N1CCc2ncccc2C1 ?
Resp: 5.44

Req: Request: Cc1nc(Cl)c(C)c(N2CCc3ncc(-c4ccc(F)nc4)cc3C2)n1
Resp: 6.67

Req: # iterate: Cc1cnccc1CNC(=O)c1cc(C)c(N2CCc3ncc(C(F)(F)F)cc3C2)nn1
Resp: 7.44

Req: What would you report for Cc1cc(C#N)cnc1N1CCc2ncc(N3CCOC(c4cccnc4)C3)cc2C1 (centres unmarked) ?
Resp: 6.03

Req: Follow-up entry: Cc1c(C#N)nnc(N2CCc3ncc(Oc4cccc(F)c4F)cc3C2)c1C
Resp: 6.63

Req: Repeat with Cc1cnc2c(c1)CN(c1nnc(C(=O)NCc3cnc4ccccc4c3)c(C)c1C)CC2
Resp: 6.60

Req: Another: Cc1cc(C(=O)NCc2cnn3ccccc23)cnc1N1CCc2ncccc2C1
Resp: 5.62

Req: Also Cc1nn(C)cc1-c1cnc2c(c1)CN(c1nc(N3CCCC3)nc(C)c1C)CC2 , if possible.
Resp: 6.67

Req: Try Cc1cc(C#N)cnc1N1CCc2ncc(N3CCCn4nc(C5CC5)cc43)cc2C1 next.
Resp: 7.03

Req: Thanks! And Cc1cc(C(=O)N2CC(c3cccnc3)C2)nnc1N1CCc2ncc(N3CCO[C@H](C)C3)cc2C1 ?
Resp: 7.21

Req: Now give it for Cc1c(C#N)nnc(N2CCc3ncc(-c4cc(F)nc(F)c4)cc3C2)c1C too.
Resp: 6.18

Req: What do we get for Cc1cc(C#N)nnc1N1CCc2ncc(-n3cccn3)cc2C1 ?
Resp: 5.98
